Recorded values, source the OligoGym collection.

details: siRNA; further: test system not given here
HELM strings list units from the 5' end as sugar, base in round brackets, then linkage (d deoxyribose, r ribose, m 2'-O-methyl, p phosphodiester). Strings are as the collection lists them, not checked against the first reports. ss, as = sense and antisense strand; [lna] = locked nucleic acid (LNA); [hna] = hexitol nucleic acid; [fl2r] = 2'-fluoro
readout.label: target mRNA knockdown
Value and unit, in that order.

Some solved cases for reference:
[[record]]
substance = "RNA1{r(G)p.r(A)p.r(C)p.r(G)p.[hna](U)p.r(A)p.r(A)p.[hna](A)p.r(C)p.r(G)p.[hna](G)p.r(C)p.r(C)p.[hna](A)p.r(C)p.r(A)p.r(A)p.r(G)p.[hna](U)p.r(U)p.d(T)}|RNA2{r(A)p.r(C)p.[lna](T)p.r(U)p.r(G)p.[lna](T)p.r(G)p.r(G)p.r(C)p.r(C)p.r(G)p.r(U)p.r(U)p.[lna](T)p.r(A)p.r(C)p.r(G)p.[lna](T)p.r(C)p.[lna](G)p.[lna](C)}$$$RNA1{StrandType:ss}|RNA2{StrandType:as}$"
readout_label = "target mRNA knockdown"
observed_measurement = "7.9%"

[[record]]
substance = "RNA1{r(U)p.r(U)p.m(A)p.m(C)p.r(A)p.r(A)p.r(A)p.r(G)p.r(G)p.r(A)p.r(U)p.r(C)p.r(U)p.r(C)p.r(C)p.r(U)p.r(C)p.r(C)p.r(C)p.r(T)p.r(T)}|RNA2{r(G)p.r(G)p.r(G)p.r(A)p.r(G)p.r(G)p.r(A)p.r(G)p.r(A)p.r(U)p.r(C)p.r(C)p.r(U)p.r(U)p.r(U)p.r(G)p.m(U)p.r(A)p.r(A)p.r(T)p.r(T)}$$$RNA1{StrandType:ss}|RNA2{StrandType:as}$"
readout_label = "target mRNA knockdown"
observed_measurement = "74%"

[[record]]
substance = "RNA1{r(G)p.r(G)p.r(A)p.r(A)p.m(G)p.r(U)p.r(A)p.r(A)p.r(G)p.r(G)p.r(A)p.r(C)p.r(C)p.r(A)p.r(G)p.r(A)p.r(G)p.r(A)p.r(C)p.r(T)p.r(T)}|RNA2{r(G)p.r(U)p.r(C)p.r(U)p.r(C)p.r(U)p.r(G)p.r(G)p.r(U)p.r(C)p.r(C)p.r(U)p.m(U)p.r(A)p.r(C)p.r(U)p.r(U)p.r(C)p.r(C)p.r(T)p.r(T)}$$$RNA1{StrandType:ss}|RNA2{StrandType:as}$"
readout_label = "target mRNA knockdown"
observed_measurement = "44%"

[[record]]
substance = "RNA1{r(G)p.r(A)p.r(A)p.r(A)p.r(C)p.m(U)p.m(G)p.r(G)p.m(U)p.r(A)p.r(C)p.m(U)p.r(U)p.r(U)p.r(C)p.r(C)p.r(C)p.r(C)p.r(C)p.r(T)p.r(T)}|RNA2{r(G)p.r(G)p.r(G)p.r(G)p.r(G)p.r(A)p.r(A)p.r(A)p.r(G)p.m(U)p.r(A)p.r(C)p.m(C)p.m(A)p.r(G)p.r(U)p.r(U)p.r(U)p.r(C)p.r(T)p.r(T)}$$$RNA1{StrandType:ss}|RNA2{StrandType:as}$"
readout_label = "target mRNA knockdown"
observed_measurement = "85%"

[[record]]
substance = "RNA1{r(A)p.r(A)p.m(U)p.r(A)p.r(A)p.r(G)p.m(C)p.r(A)p.r(G)p.r(C)p.r(U)p.r(C)p.r(G)p.r(C)p.r(G)p.r(C)p.r(U)p.r(C)p.r(C)p.r(T)p.r(T)}|RNA2{r(G)p.r(G)p.r(A)p.r(G)p.r(C)p.r(G)p.r(C)p.r(G)p.r(A)p.r(G)p.r(C)p.r(U)p.r(G)p.r(C)p.r(U)p.m(U)p.r(A)p.r(U)p.r(U)p.r(T)p.r(T)}$$$RNA1{StrandType:ss}|RNA2{StrandType:as}$"
readout_label = "target mRNA knockdown"
observed_measurement = "54%"

[[record]]
substance = "RNA1{m(U)p.r(A)p.r(C)p.r(C)p.r(G)p.r(A)p.r(G)p.r(A)p.r(A)p.r(U)p.r(G)p.r(A)p.r(G)p.r(C)p.r(C)p.r(U)p.r(G)p.r(A)p.r(U)p.r(T)p.r(T)}|RNA2{r(A)p.r(U)p.r(C)p.r(A)p.r(G)p.r(G)p.r(C)p.r(U)p.r(C)p.r(A)p.r(U)p.r(U)p.r(C)p.r(U)p.r(C)p.r(G)p.r(G)p.m(U)p.r(A)p.r(T)p.r(T)}$$$RNA1{StrandType:ss}|RNA2{StrandType:as}$"
readout_label = "target mRNA knockdown"
observed_measurement = "55%"

[[record]]
substance = "RNA1{r(A)p.r(C)p.r(C)p.r(U)p.r(U)p.r(U)p.r(C)p.r(C)p.r(A)p.r(C)p.r(U)p.r(U)p.r(C)p.r(U)p.r(A)p.r(A)p.r(G)p.r(C)p.r(C)p.r(T)p.r(T)}|RNA2{r(G)p.r(G)p.r(C)p.m(U)p.m(U)p.r(A)p.r(G)p.r(A)p.r(A)p.r(G)p.m(U)p.r(G)p.r(G)p.r(A)p.r(A)p.r(A)p.r(G)p.r(G)p.m(U)p.r(T)p.r(T)}$$$RNA1{StrandType:ss}|RNA2{StrandType:as}$"
readout_label = "target mRNA knockdown"
observed_measurement = "80%"

[[record]]
substance = "RNA1{r(G)p.r(A)p.r(C)p.r(G)p.r(U)p.r(A)p.r(A)p.r(A)p.r(C)p.r(G)p.r(G)p.r(C)p.r(C)p.r(A)p.r(C)p.r(A)p.r(A)p.r(G)p.r(U)p.[lna](T)p.[lna](C)}|RNA2{[fl2r](A)p.m(C)p.[fl2r](U)p.m(U)p.[fl2r](G)p.m(U)p.[fl2r](G)p.m(G)p.[fl2r](C)p.m(C)p.[fl2r](G)p.m(U)p.[fl2r](U)p.m(U)p.[fl2r](A)p.m(C)p.[fl2r](G)p.m(U)p.[fl2r](C)p.m(G)p.[fl2r](C)}$$$RNA1{StrandType:ss}|RNA2{StrandType:as}$"
readout_label = "target mRNA knockdown"
observed_measurement = "81.2%"


Now examine the next entry.
In plain terms, RNA1{m(A)p.r(U)p.m(C)p.r(A)p.m(C)p.r(A)p.m(A)p.r(A)p.m(C)p.r(C)p.m(C)p.r(C)p.m(U)p.r(A)p.m(G)p.r(A)p.m(G)p.r(G)p.m(G)p.r(T)p.r(T)}|RNA2{r(C)p.r(C)p.r(C)p.r(U)p.r(C)p.r(U)p.r(A)p.r(G)p.r(G)p.r(G)p.r(G)p.r(U)p.r(U)p.r(U)p.r(G)p.r(U)p.r(G)p.r(A)p.r(U)p.r(T)p.r(T)}$$$RNA1{StrandType:ss}|RNA2{StrandType:as}$ has a documented target mRNA knockdown of 9%
